Values were extracted from patent US20260364184A1.

As shown below, each of these compounds has a reported inhibition at 0.5 µM value.
- Tested on: Human B-Cell Lymphoma Cells (RPMI-8226)
- test protocol: Inhibition of RPMI-8226 cell proliferation (CellTiter luminescent viability)
- Format: cell-based
- measurement conditions: Table IA4, IRAK4 inhibitor-based, RPMI-8226, 500 nM, 96 hours, read-out: Inhibition Rate at 500 nM (%)

Previously resolved entries follow.
- structure smiles string: "O=C1CCN(N2C(=O)c3cc(F)c(N4CCN(C[C@H]5CC[C@H](n6cc(NC(=O)c7cnn8ccc(N9C[C@H]%10C[C@@H]9CO%10)nc78)c(C(F)F)n6)CC5)CC4)cc3C2=O)C(=O)N1"
  endpoint label: "inhibition at 0.5 µM"
  measured: "20 to 25%"
- structure smiles string: "O=C1CCN(N2C(=O)c3ccc(CN4CCC(n5cc(NC(=O)c6coc(-c7ccnc(NCC(F)(F)F)c7)n6)c(C(F)F)n5)CC4)cc3C2=O)C(=O)N1"
  endpoint label: "inhibition at 0.5 µM"
  measured: "40 to 60%"
- structure smiles string: "COc1cc2nn([C@H]3CC[C@H](CN4CCN(c5ccc6c(c5)C(=O)N(N5CCC(=O)NC5=O)C6=O)CC4)CC3)cc2cc1NC(=O)c1cccc(C(F)(F)F)c1"
  endpoint label: "inhibition at 0.5 µM"
  measured: "25 to 30%"
- structure smiles string: "CC(C)(O)c1cc2nc(C3CCN(Cc4ccc5c(c4)CN(N4CCC(=O)NC4=O)C5=O)CC3)sc2cc1NC(=O)c1cccc(C(F)(F)F)n1"
  endpoint label: "inhibition at 0.5 µM"
  measured: "25 to 30%"
- structure smiles string: "O=C1CCN(N2C(=O)c3ccc(N4CCC(CN5CCC(n6cc(NC(=O)c7cnn8ccc(N9CCOCC9)nc78)c(C(F)F)n6)CC5)CC4)cc3C2=O)C(=O)N1"
  endpoint label: "inhibition at 0.5 µM"
  measured: "25 to 30%"

Q: Give recorded inhibition at 0.5 µM. "CC(C)(O)c1cc2nc(C3CCN(CC4CCN(c5ccc6c(c5)C(=O)N(N5CCC(=O)NC5=O)C6=O)CC4)CC3)sc2cc1NC(=O)c1cccc(C(F)(F)F)n1"
Ans: 25 to 30%

---

- tested on: human Cereblon WT GST-tagged protein (CRBN) (Homo sapiens, UniProt Q96SW2)
- Construct: purchased CISBIO 64BDCRBNPEH
- Sequence (Q96SW2 whole entry): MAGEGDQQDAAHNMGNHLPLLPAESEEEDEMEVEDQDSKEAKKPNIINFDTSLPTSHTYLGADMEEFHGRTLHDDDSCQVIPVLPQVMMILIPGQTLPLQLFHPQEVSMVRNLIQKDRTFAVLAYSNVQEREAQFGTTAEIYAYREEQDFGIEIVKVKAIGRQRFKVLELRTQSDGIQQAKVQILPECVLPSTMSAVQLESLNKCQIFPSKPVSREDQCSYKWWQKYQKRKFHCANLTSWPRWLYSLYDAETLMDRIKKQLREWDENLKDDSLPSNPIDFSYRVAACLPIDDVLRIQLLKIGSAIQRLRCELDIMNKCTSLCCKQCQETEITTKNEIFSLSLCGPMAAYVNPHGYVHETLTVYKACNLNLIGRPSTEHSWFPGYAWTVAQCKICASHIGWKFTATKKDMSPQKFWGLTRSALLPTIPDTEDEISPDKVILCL
- test protocol: CRBN binding by HTRF (Cereblon binding kit)
- measurement conditions: 2 μM, read-out: Inhibition Rate at 2 μM (%)
endpoint label: inhibition at 2 µM

Previously resolved entries follow.
- molecule: "CNC(=O)c1ccccc1Nc1cc(Nc2ccc(N3CCN(Cc4ccc5c(c4)CN(N4CCC(=O)NC4=O)C5=O)CC3)cc2OC)ncc1C(F)(F)F [GT-07660]"
  inhibition at 2 µM: "60 to 80%"
- molecule: "CC(C)(O)c1cc2nc(C3CCN(Cc4ccc5c(c4)CN(N4CCC(=O)NC4=O)C5=O)CC3)oc2cc1NC(=O)c1cccc(C(F)(F)F)n1 [GT-05748]"
  inhibition at 2 µM: "60 to 80%"
- molecule: "O=C1CCN(N2C(=O)c3cccc(N4CCC(CN5CCC(n6cc(NC(=O)c7cnn8ccc(N9C[C@H]%10C[C@@H]9CO%10)nc78)c(C(F)F)n6)CC5)CC4)c3C2=O)C(=O)N1 [GT-05285]"
  inhibition at 2 µM: "60 to 80%"
- molecule: "Cn1c2ccncc2c2ccc(-c3cnc(N4CCN(Cc5ccc6c(c5)CN(N5CCC(=O)NC5=O)C6=O)CC4)c(C(F)(F)F)c3)cc21 [GT-08539]"
  inhibition at 2 µM: "60 to 80%"
- molecule: "N#Cc1ccc(O[C@H]2CC[C@H](NC(=O)c3ccc(N4CCC(CN5CC6CCC5CN6c5ccc6c(c5)C(=O)N(N5CCC(=O)NC5=O)C6=O)CC4)nn3)CC2)cc1Cl (some centres unmarked) [GT-05832]"
  inhibition at 2 µM: "40 to 53%"

Q: Give recorded inhibition at 2 µM. Cn1c2ccncc2c2ccc(-c3cnc(N4CCN(Cc5ccc6c(c5)CN(N5CCC(=O)NC5=O)C6=O)CC4)c(Cl)c3)cc21 [GT-08541]
Ans: 60 to 80%

Q: Give recorded inhibition at 2 µM. COC1CCN(c2nccc(Nc3cc4c(cn3)c(N3CCC(N(C)CC5CCN(c6cccc7c6C(=O)N(N6CCC(=O)NC6=O)C7=O)CC5)CC3)nn4C(C)C)n2)CC1 [GT-06119]
Ans: 53 to 60%

Q: Give recorded inhibition at 2 µM. Cn1ncc(Cl)c1-c1cc(C(=O)N[C@H](CNCC2CCN(c3ccc4c(c3)C(=O)N(N3CCC(=O)NC3=O)C4=O)CC2)Cc2ccc(F)c(F)c2)oc1Cl [GT-08584]
Ans: 53 to 60%

---

- System: Human myeloid monocytic leukemia cell line (MV-4-11)
- test protocol: Inhibition of MV-4-11 cell proliferation (CellTiter luminescent viability)
- Format: cell-based
- measurement conditions: Homo sapiens, MV4-11; Table IL2, BCR-ABL inhibitor-based; MV-4-11, 500 nM, 96 hours; read-out: Inhibition Rate at 500 nM (%)
As shown below, each of these compounds has a reported inhibition at 0.5 µM value.

- compound: "Cc1nc(Nc2ncc(C(=O)Nc3c(C)cccc3Cl)s2)cc(N2CCN(CCO)CC2)n1 [Dasatinib, reference compound]"
  measured: "40 to 50%"
- compound: "Cc1ccc(C(=O)Nc2ccc(CN3CCN(CC4CCN(c5cccc6c5C(=O)N(N5CCC(=O)NC5=O)C6=O)CC4)CC3)c(C(F)(F)F)c2)cc1C#Cc1cnc2cccnn12 [GT-08353]"
  measured: "80 to 100%"
- compound: "Cc1ccc(C(=O)Nc2ccc(CN3CCN(Cc4ccc5c(c4)C(=O)N(N4CCC(=O)NC4=O)C5=O)CC3)c(C(F)(F)F)c2)cc1C#Cc1cnc2cccnn12 [GT-08217]"
  measured: "80 to 100%"
- compound: "Cc1ccc(C(=O)Nc2ccc(CN3CCN(CC4CCN(c5ccc6c(c5)C(=O)N(N5CCC(=O)NC5=O)C6=O)CC4)CC3)c(C(F)(F)F)c2)cc1C#Cc1cnc2cccnn12 [GT-08352]"
  measured: "80 to 100%"
- compound: "Cc1ccc(C(=O)Nc2ccc(N3CCC(N(C)Cc4ccc5c(c4)C(=O)N(N4CCC(=O)NC4=O)C5=O)CC3)c(C(F)(F)F)c2)cc1C#Cc1cnc2cccnn12 [GT-08221]"
  measured: "50 to 60%"
- compound: "Cc1ccc(C(=O)Nc2ccc(N3CCN(Cc4ccc5c(c4)CN(N4CCC(=O)NC4=O)C5=O)CC3)c(C(F)(F)F)c2)cc1C#Cc1cnc2cccnn12 [GT-08218]"
  measured: "80 to 100%"
- compound: "Cc1ccc(C(=O)Nc2ccc(N3CCC(N(C)Cc4ccc5c(c4)CN(N4CCC(=O)NC4=O)C5=O)CC3)c(C(F)(F)F)c2)cc1C#Cc1cnc2cccnn12 [GT-08220]"
  measured: "80 to 100%"

Q: Give recorded inhibition at 0.5 µM. Cc1ccc(C(=O)Nc2ccc(CN3CCN(Cc4ccc5c(c4)CN(N4CCC(=O)NC4=O)C5=O)CC3)c(C(F)(F)F)c2)cc1C#Cc1cnc2cccnn12 [GT-08216]
Ans: 80 to 100%

---

- Test system: Human prostate cancer cell line (NCI-H358)
- test protocol: Inhibition of NCI-H358 cell proliferation (CellTiter luminescent viability)
- measurement conditions: Table IH1, BCL-2 inhibitor-based, NCI-H358, 500 nM, 96 hours, read-out: Inhibition Rate at 500 nM (%)
endpoint label: inhibition at 0.5 µM

- compound: "CC1(C)CCC(c2ccc(Cl)cc2)=C(CN2CCN(c3ccc(C(=O)NS(=O)(=O)c4ccc(N[C@H](CCN5C[C@H]6C[C@@H]5CN6Cc5ccc6c(c5)CN(N5CCC(=O)NC5=O)C6=O)CSc5ccccc5)c(S(=O)(=O)C(F)(F)F)c4)cc3)CC2)C1 [GT-07812]"
  inhibition at 0.5 µM: "50 to 60%"

Q: Give recorded inhibition at 0.5 µM. CC1(C)CCC(c2ccc(Cl)cc2)=C(CN2CCN(c3ccc(C(=O)NS(=O)(=O)c4ccc(N[C@H](CCN5C6CCC5CN(Cc5ccc7c(c5)CN(N5CCC(=O)NC5=O)C7=O)C6)CSc5ccccc5)c(S(=O)(=O)C(F)(F)F)c4)cc3)CC2)C1 [GT-07814]
Ans: 40 to 50%

---

As shown below, each of these compounds has a reported IC50 value.
- System: Human breast cancer cell line MCF-7
- test protocol: Inhibition of MCF-7 cell proliferation (CellTiter luminescent viability)
- measurement conditions: Table IE1, CDK4/6 inhibitor-based; MCF-7, 96 hours; read-out: Inhibitory activity (IC50, nM) on tumor cell proliferation, MCF-7

- compound: "Cc1nc2c(F)cc(-c3nc(Nc4ccc(N5CCN(Cc6ccc7c(c6)CN(N6CCC(=O)NC6=O)C7=O)CC5)cn4)ncc3F)cc2n1C(C)C"
  endpoint label: "IC50"
  measured: "100 to 300 nM"
- compound: "CC(=O)c1c(C)c2cnc(Nc3ccc(N4CCNCC4)cn3)nc2n(C2CCCC2)c1=O [Palbociclib, reference compound]"
  endpoint label: "IC50"
  measured: "1000 to 5000 nM"
- compound: "Cc1nc2c(F)cc(-c3nc(Nc4ccc(N5CCC(N6CCN(Cc7ccc8c(c7)CN(N7CCC(=O)NC7=O)C8=O)CC6)CC5)cn4)ncc3F)cc2n1C(C)C"
  endpoint label: "IC50"
  measured: "50 to 100 nM"
- compound: "Cc1nc2c(F)cc(-c3nc(Nc4ccc(N5CCC(N(C)Cc6ccc7c(c6)CN(N6CCC(=O)NC6=O)C7=O)CC5)cn4)ncc3F)cc2n1C(C)C"
  endpoint label: "IC50"
  measured: "100 to 300 nM"

Q: Give recorded IC50. CN(C)C(=O)c1cc2cnc(Nc3ccc(N4CCNCC4)cn3)nc2n1C1CCCC1 [Ribociclib, reference compound]
Ans: 1000 to 5000 nM
